In this section we review reported Kinetic_solubility values for a set of compounds.
protocol.summary: Kinetic solubility of compound in PBS at 0.78 to 500 uM measured immediately by nephelometric method
Format: physicochemical
conditions.used: buffer, dose 0.78-500 µM

{"chemical.structure": "O=C(N[C@H](Cc1ccccc1)C(=O)Nc1ccccc1C1CCSCC1)c1cccs1", "Kinetic_solubility, µM": 39}
{"chemical.structure": "O=C(N[C@H](Cc1ccsc1)C(=O)Nc1ccccc1N1CC[S+]([O-])CC1)c1ccccc1F", "Kinetic_solubility, µM": 96}
{"chemical.structure": "O=C(N[C@H](Cc1ccccc1)C(=O)Nc1ccccc1N1CC[S+]([O-])CC1)c1cccs1", "Kinetic_solubility, µM": 271}
{"chemical.structure": "O=C(N[C@H](Cc1ccccc1)C(=O)Nc1ccccc1N1CCSCC1)c1ccccc1F", "Kinetic_solubility, µM": 28}
{"chemical.structure": "O=C(N[C@H](Cc1ccsc1)C(=O)Nc1ccccc1N1CCOCC1)c1ccccc1F", "Kinetic_solubility, µM": 31}
{"chemical.structure": "O=C(N[C@H](Cc1ccccc1)C(=O)Nc1cc(F)ccc1N1CCSCC1)c1ccccc1F", "Kinetic_solubility, µM": 31}
{"chemical.structure": "O=C(N[C@H](Cc1ccccc1)C(=O)Nc1cc(F)ccc1N1CCS(=O)(=O)CC1)c1ccccc1F", "Kinetic_solubility, µM": 32}
{"chemical.structure": "O=C(N[C@H](Cc1ccccc1)C(=O)Nc1cc(F)ccc1N1CCSCC1)c1cccs1", "Kinetic_solubility, µM": 37}
{"chemical.structure": "O=C(N[C@H](Cc1cccs1)C(=O)Nc1ccccc1N1CC[S+]([O-])CC1)c1ccccc1F", "Kinetic_solubility, µM": 96}
{"chemical.structure": "O=C(N[C@H](Cc1ccccc1)C(=O)Nc1ccccc1N1CCS(=O)(=O)CC1)c1cccs1", "Kinetic_solubility, µM": 62}
{"chemical.structure": "O=C(N[C@H](Cc1ccccc1)C(=O)Nc1ccccc1N1CCSCC1)c1cccs1", "Kinetic_solubility, µM": 34}
{"chemical.structure": "O=C(N[C@H](Cc1ccccc1)C(=O)Nc1cc(F)ccc1N1CC[S+]([O-])CC1)c1cccs1", "Kinetic_solubility, µM": 131}
{"chemical.structure": "O=C(N[C@H](Cc1ccsc1)C(=O)Nc1ccccc1N1CC[S+]([O-])CC1)c1cccs1", "Kinetic_solubility, µM": 74}
{"chemical.structure": "O=C(N[C@H](Cc1cccs1)C(=O)Nc1ccccc1N1CC[S+]([O-])CC1)c1cccs1", "Kinetic_solubility, µM": 60}
{"chemical.structure": "O=C(N[C@H](Cc1ccccc1)C(=O)Nc1ccccc1N1CCS(=O)(=O)CC1)c1ccccc1F", "Kinetic_solubility, µM": 64}
{"chemical.structure": "O=C(N[C@H](Cc1ccccc1)C(=O)Nc1cc(F)ccc1N1CCS(=O)(=O)CC1)c1cccs1", "Kinetic_solubility, µM": 70}
{"chemical.structure": "O=C(N[C@H](Cc1cccs1)C(=O)Nc1ccccc1N1CCOCC1)c1ccccc1F", "Kinetic_solubility, µM": 39}
